system: HEK293 cells; type: cell-based, human; conditions: circular RNA encoding Gluc with the listed IRES (UTR truncated to 675 nt) transfected into HEK293 cells; supernatant after 24 hours
Assign labels as follows, please: Yes for Expression (luminescence from secreted Gluc protein) below 100000; No for Expression (luminescence from secreted Gluc protein) equal to or exceeding 100000.

| molecule | class name |
| --- | --- |
| Felipivirus 127F (nucleic acid, listed as Felipivirus sp.) GATGTCGGATGACGGCTGGCCACCGGGGAAAAACGGCAAATGTGCACCACCTCTGCAACCCACGCCGACCACGTTTAACCATGGCGTTAGTAGGAGTGGACCACTGCAGTGGGCTCTGGTGTGCGACAGTCAGTGGTAGAGTAGACAGTCCTGACTGGGCAATGGGACCGCGTTGCGTATCCCTAGGTGGCATCGAGATTCCTCTGCTACCCACCAGCGTGGACTCCTATGGGGGGGGCCCCATAGGCTAGGTCTATACTGCCTGATAGGGTCGCGGCTGGTCGACCACTGACTGTATAACCAGTTGTAACTCACT | No |
| Equine arteritis virus (nucleic acid, lipid formulation; source: /note="Description of Unknown: Equine arteritis virus sequence") GCTCGAAGTGTGTATGGTGCCATATACGGCTCACCACCATATACACTGCAAGAATTACTATTCTTGTGGGCCCCTCTCGGTAAATCCTAGAGGGCTTTCCTCTCGTTATTGCGAGATTCGTCGTTAGATAACGGCAAGTTCCCTTTCTTACTATCCTATTTTCATCTTGTGGCTTGACGGGTCACTGCCATCGTCGTCGATCTCTATCAACTACCCTTGCGACT | No |
| Zika Virus (nucleic acid, listed as Zika virus, chemistry not fully specified; the letters are possibly those of the target site) DNA: AGTTGTTGATCTGTGTGAGTCAGACTGCGACAGTTCGAGTCTGAAGCGAGAGCTAACAACAGTATCAACAGGTTTAATTTGGATTTGGAAACGAGAGTTTCTGGTC | Yes |
| Guereza hepacivirus (nucleic acid, listed as Hepacivirus sp., lipid formulation) CACTCAATACTACACTCCGCATTTGGGGAGAAGCGCTGGCGTTCGCGGAACCGCGTTAACCATACGCGTAGTACGAGTGCGACAGACCCCGGTGCTACTGGTGGTAGCGAGACACGAGCCGAAGTCTGTGGGGGGAACTCCACTTAGAGGGCATGCCCGGGCGTAGGCTTCTGAGTTGGGATGGGCCCCAACTTGGCCCCTGAGTGGGGGGGTGTTACGACCTGATAGGGTGCGGGCTGGCGCCTACCACTTTCCAGTCGTACATGAGTC | No |
| Human pegivirus isolate JD2B1I (nucleic acid, listed as Pegivirus sp.) DNA: TCAGGGTTGGTAGGTCGTAAATCCCGGTCACCTTGGTAGCCACTATAGGTGGGTCTTAAGAGAAGGTTAAGATTCCTCTTGTGCCTGCGGCGAGACCGCGCACGGTCCACAGGTGTTGGCCCTACCGGTGGGAATAAGGGCCCGACGTCAGGCTCGTCGTTAAACCGAGCCCGTCACCCACCTGGGCAAACGACGCCCACGTACGGTCCACGTCGCCCTTCA | No |
